- EXPERIMENTAL SYSTEM: SERCA2a-PLB complex (GFP-SERCA2a / RFP-PLB in HEK293 cells) (Homo sapiens, UniProt P16615+P26678, C36A/C41F/C46A)
- Sequence (P16615 1-997 isoform P16615-2, stated change not applied): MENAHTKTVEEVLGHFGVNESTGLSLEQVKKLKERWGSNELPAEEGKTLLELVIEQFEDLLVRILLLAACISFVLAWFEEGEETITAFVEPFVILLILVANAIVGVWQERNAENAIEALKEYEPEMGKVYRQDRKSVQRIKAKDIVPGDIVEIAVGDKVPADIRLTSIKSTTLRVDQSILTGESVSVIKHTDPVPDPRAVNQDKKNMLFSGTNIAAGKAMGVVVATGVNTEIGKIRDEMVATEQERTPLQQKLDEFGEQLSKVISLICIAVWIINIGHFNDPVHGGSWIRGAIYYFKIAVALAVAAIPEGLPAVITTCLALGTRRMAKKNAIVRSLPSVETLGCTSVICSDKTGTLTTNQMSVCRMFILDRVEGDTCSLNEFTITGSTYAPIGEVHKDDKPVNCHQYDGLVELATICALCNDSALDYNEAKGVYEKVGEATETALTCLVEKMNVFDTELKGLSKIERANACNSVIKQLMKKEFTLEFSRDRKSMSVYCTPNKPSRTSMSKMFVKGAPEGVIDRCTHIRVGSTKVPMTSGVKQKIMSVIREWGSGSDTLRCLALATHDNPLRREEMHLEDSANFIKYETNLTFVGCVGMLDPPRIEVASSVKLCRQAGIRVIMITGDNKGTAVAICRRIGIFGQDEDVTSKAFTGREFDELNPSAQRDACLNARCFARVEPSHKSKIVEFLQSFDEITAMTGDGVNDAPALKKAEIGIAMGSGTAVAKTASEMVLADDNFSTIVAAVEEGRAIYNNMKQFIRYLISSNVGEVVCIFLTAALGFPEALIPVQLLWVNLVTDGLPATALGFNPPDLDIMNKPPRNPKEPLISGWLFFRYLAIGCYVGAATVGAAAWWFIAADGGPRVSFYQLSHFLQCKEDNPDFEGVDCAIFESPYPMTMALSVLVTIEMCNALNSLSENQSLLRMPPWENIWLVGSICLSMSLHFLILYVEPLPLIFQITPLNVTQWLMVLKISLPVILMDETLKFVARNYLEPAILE
- Sequence (P26678 whole entry C36A/C41F/C46A): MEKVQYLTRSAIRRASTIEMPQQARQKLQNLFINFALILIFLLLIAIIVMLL
- TEST METHOD NOTES: SERCA2a-PLB TR-FRET (fluorescence lifetime) biosensor assay in living cells
- Assay type: cell-based
- Set-up: expressed in transfected cells; host or cells: HEK293
- CONDITION CONTEXT: compound incubation for 20 min, final concentration 10 µM; uncertainty (1 S.D.) 11 ps
Checkbox rule: ΔFLT lower than 40 ps = class 1; ΔFLT not lower than 40 ps = class 0.

A selection of reference data follows.
{"columns": ["MOLECULE", "ASSIGNED CLASS"],
 "data": [
  ["Cc1[nH]c(=O)c(C#N)cc1-c1ccc2nccn2c1 [Olprinone]", "class 1"],
  ["Brc1c(Br)c(Br)c2n[nH]nc2c1Br [TBB]", "class 1"],
  ["CC1=C(/C=C/C(C)=C/C=C/C(C)=C/C(=O)O)C(C)(C)CCC1 [Retinoic Acid]", "class 1"],
  ["CCCCCCCCCCCCCCCC(=O)OC(CC(=O)O)C[N+](C)(C)C.[Cl-] (racemic) [Palmitoyl-DL-carnitine chloride]", "class 0"],
  ["CN1CCC[C@@H]1Cc1c[nH]c2ccc(Nc3ncccc3[N+](=O)[O-])cc12 [CP-135807]", "class 1"]
]}

Threshold test, ΔFLT < 40 ps: NC(=O)N1C(=O)/C(=C(\O)c2cccs2)c2cc(Cl)ccc21 [Tenidap]
class 1

Threshold test, ΔFLT < 40 ps: O=C(c1cc(O)c(O)c([N+](=O)[O-])c1)c1ccccc1F [Ro 41-0960]
class 1

Threshold test, ΔFLT < 40 ps: Clc1ccc(C(c2ccc(Cl)cc2)n2cc[n+](CC(OCc3ccc(Cl)cc3Cl)c3ccc(Cl)cc3Cl)c2)cc1 (centres unmarked) [Calmidazolium]
class 0

Threshold test, ΔFLT < 40 ps: Oc1ccc(/C=C/c2ccc(/C=C/c3ccc(O)cc3)c(Br)c2)cc1 [K114]
class 1

Threshold test, ΔFLT < 40 ps: CCCCN(CC)c1nc(C)nc2c1c(C)cn2-c1c(C)cc(C)cc1C [CP 154526]
class 0

Threshold test, ΔFLT < 40 ps: CN=c1nc(-c2ccccc2)n(-c2ccccc2)s1 [SCH 202676]
class 1

Threshold test, ΔFLT < 40 ps: CC(C)(C)c1ccc(/C=C/C(=O)Nc2ccc3c(c2)OCCO3)cc1 [AMG9810]
class 1

Threshold test, ΔFLT < 40 ps: CCOc1nc2cccc(C(=O)OC(C)OC(=O)OC3CCCCC3)c2n1Cc1ccc(-c2ccccc2-c2nnn[nH]2)cc1 (centres unmarked) [Candesartan cilexetil]
class 0

Threshold test, ΔFLT < 40 ps: COC(=O)c1c(C)[nH]c(C)c1C(=O)c1ccccc1Cc1ccccc1 [FPL 64176]
class 1

Threshold test, ΔFLT < 40 ps: CNC(=O)c1cc2c(cn1)[nH]c1ccccc12 [FG7142]
class 1

Threshold test, ΔFLT < 40 ps: CCc1ccc(/C=C2/SC(=S)NC2=O)cc1 [10058-F4]
class 1

Threshold test, ΔFLT < 40 ps: O=C(Nc1cccnc1)N1CCC(Cc2cccc(Oc3ccc(C(F)(F)F)cn3)c2)CC1 [PF3845]
class 1
